These entries and their values trace back to the supplement of paper PMC6757056.

B1: library; a variant is named by its letters at N, in order (parent)
chain: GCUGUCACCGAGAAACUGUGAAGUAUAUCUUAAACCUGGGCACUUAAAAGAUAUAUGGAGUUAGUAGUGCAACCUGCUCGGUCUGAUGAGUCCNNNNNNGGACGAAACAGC

- Variants of: B1
- assay_info: normalized RNA/DNA level with ligand (relative to sTRSVctl = 100) (log10 (% of sTRSVctl)); HEK293T; ligand: cyclic di-GMP (c-di-GMP-II aptamer); ligand concentration (+) RNA-Seq: 1 mM; higher = less ribozyme self-cleavage, higher mRNA level
- experimental_parameters: reporter: mCherry (pCS4076), ligand present: yes
// reported normalized RNA/DNA level with ligand (log10) per item
# answer = number (no unit)

In: Item "AGAGGU" has what recorded normalized RNA/DNA level with ligand (log10)?
Out: 1.73

In: How about "AAACCA" ?
Out: 1.76

New cases:
In: Item under review: "ACGUGC" . Reported normalized RNA/DNA level with ligand (log10)?
Out: 1.8

In: Then what about the variant "AAAAGG" ?
Out: 1.66

In: Another variant to check: "AUAUCC"
Out: 1.9

In: Consider next the variant "CGCGUU" in the same way.
Out: 1.86

In: What do we get for "ACAUAU" ?
Out: 1.64

In: Entry "CCAAGU" please
Out: 1.82

In: Then what about the variant "CCACAU" ?
Out: 1.76
